Test system: SH-SY5Y
Test: Antiproliferative activity against human SH-SY5Y cells incubated for 72 hrs by MTT assay
Type: functional, cell-based
Listed here are compounds together with their documented pIC50.
Note: pIC50 values are expressed as the negative base-10 logarithm of concentration in M.

* FC(F)(F)c1ccc(COc2cccc(Nc3ncnc4cc5c(cc34)OCCOCCOCCOCCO5)c2)cc1 | 5.07
* c1ccc(COc2ccccc2Nc2ncnc3cc4c(cc23)OCCOCCOCCOCCO4)cc1 | 4.62
* FC(F)(F)c1ccc(COc2ccc(Nc3ncnc4cc5c(cc34)OCCOCCO5)cc2)cc1 | 4.52

Next compound, pIC50 to be filled in.
Lookup: pIC50 for "c1ccc(COc2cccc(Nc3ncnc4cc5c(cc34)OCCOCCO5)c2)cc1" ?
Found: 4.16

---

Molecular target: Epidermal growth factor receptor (Homo sapiens, UniProt P00533)
Sequence (P00533 whole entry): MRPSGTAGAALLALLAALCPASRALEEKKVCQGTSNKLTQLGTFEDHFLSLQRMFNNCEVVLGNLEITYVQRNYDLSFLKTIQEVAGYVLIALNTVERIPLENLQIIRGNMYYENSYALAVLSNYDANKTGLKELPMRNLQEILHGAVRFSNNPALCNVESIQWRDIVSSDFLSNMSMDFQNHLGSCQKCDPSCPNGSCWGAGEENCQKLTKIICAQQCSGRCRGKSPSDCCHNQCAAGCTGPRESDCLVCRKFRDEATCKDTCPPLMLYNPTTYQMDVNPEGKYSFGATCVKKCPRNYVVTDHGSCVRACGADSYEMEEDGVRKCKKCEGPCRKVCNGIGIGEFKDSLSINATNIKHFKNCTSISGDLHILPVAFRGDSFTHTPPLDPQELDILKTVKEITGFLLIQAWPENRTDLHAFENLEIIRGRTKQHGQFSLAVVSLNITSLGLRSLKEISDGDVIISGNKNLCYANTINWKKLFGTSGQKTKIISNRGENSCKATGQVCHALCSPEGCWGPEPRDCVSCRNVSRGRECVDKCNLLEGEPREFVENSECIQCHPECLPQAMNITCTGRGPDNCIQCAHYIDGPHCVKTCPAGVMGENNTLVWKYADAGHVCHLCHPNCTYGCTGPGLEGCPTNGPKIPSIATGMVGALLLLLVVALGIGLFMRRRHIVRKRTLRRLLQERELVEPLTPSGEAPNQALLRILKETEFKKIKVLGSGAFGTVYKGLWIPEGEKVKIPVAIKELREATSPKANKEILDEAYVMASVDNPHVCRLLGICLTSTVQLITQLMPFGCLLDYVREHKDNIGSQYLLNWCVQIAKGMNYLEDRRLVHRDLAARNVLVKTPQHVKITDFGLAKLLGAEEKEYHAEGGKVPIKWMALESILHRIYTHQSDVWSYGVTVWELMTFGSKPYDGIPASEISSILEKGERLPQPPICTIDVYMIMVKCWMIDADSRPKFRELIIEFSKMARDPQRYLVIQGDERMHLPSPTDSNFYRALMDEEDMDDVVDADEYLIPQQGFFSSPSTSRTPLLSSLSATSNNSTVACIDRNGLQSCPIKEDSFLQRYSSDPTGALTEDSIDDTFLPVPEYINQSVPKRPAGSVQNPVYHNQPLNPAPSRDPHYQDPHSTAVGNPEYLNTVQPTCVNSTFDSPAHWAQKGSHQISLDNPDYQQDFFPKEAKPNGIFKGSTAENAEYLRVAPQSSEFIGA
quantityName: pIC50
Note: pIC50 values are expressed as the negative base-10 logarithm of concentration in M.

Lookup: pIC50 for "FC(F)(F)c1ccc(COc2ccc(Nc3ncnc4cc5c(cc34)OCCOCCOCCOCCO5)cc2)cc1" ?
Found: 6.41

---

Test system: A549
Experiment: Antiproliferative activity against human A549 cells incubated for 72 hrs by MTT assay
Format: functional, cell-based
Details: A549, 72 h
quantityName: IC50 (µM)
Answer in µM, number only, no unit symbol.

• FC(F)(F)c1ccc(COc2ccc(Nc3ncnc4cc5c(cc34)OCCOCCOCCOCCO5)cc2)cc1 = 8.56

Lookup: IC50 for "c1ccc(COc2ccc(Nc3ncnc4cc5c(cc34)OCCOCCO5)cc2)cc1" ?
Found: 43.9

---

Test system: DU-145
Test: Antiproliferative activity against human DU145 cells incubated for 72 hrs by MTT assay
Assay type: functional, cell-based
Settings: DU-145, 72 h
pIC50: −log10 of the molar value.
Listed here are compounds together with their documented pIC50.

* O=[N+]([O-])c1ccc(COc2ccccc2Nc2ncnc3cc4c(cc23)OCCOCCO4)cc1 | 4.07
* c1ccc(COc2ccc(Nc3ncnc4cc5c(cc34)OCCOCCO5)cc2)cc1 | < 4.00
* c1ccc(COc2ccccc2Nc2ncnc3cc4c(cc23)OCCOCCOCCOCCO4)cc1 | < 4.00
* c1ccc(COc2ccc(Nc3ncnc4cc5c(cc34)OCCOCCOCCO5)cc2)cc1 | < 4.00
* O=[N+]([O-])c1ccc(COc2ccc(Nc3ncnc4cc5c(cc34)OCCOCCO5)cc2)cc1 | < 4.00
* FC(F)(F)c1ccc(COc2ccc(Nc3ncnc4cc5c(cc34)OCCOCCOCCOCCO5)cc2)cc1 | 5.06

Lookup: pIC50 for "CNC(=O)c1cc(Oc2ccc(NC(=O)Nc3ccc(Cl)c(C(F)(F)F)c3)cc2)ccn1" ?
Found: 4.08

Lookup: pIC50 for "FC(F)(F)c1ccc(COc2cccc(Nc3ncnc4cc5c(cc34)OCCOCCOCCOCCO5)c2)cc1" ?
Found: 4.57

Lookup: pIC50 for "FC(F)(F)c1ccc(COc2cccc(Nc3ncnc4cc5c(cc34)OCCOCCO5)c2)cc1" ?
Found: < 4.00

Lookup: pIC50 for "c1ccc(COc2cccc(Nc3ncnc4cc5c(cc34)OCCOCCOCCO5)c2)cc1" ?
Found: < 4.00

Lookup: pIC50 for "c1ccc(COc2cccc(Nc3ncnc4cc5c(cc34)OCCOCCO5)c2)cc1" ?
Found: < 4.00

Lookup: pIC50 for "c1ccc(COc2ccccc2Nc2ncnc3cc4c(cc23)OCCOCCO4)cc1" ?
Found: < 4.00

Lookup: pIC50 for "c1ccc(COc2ccc(Nc3ncnc4cc5c(cc34)OCCOCCOCCOCCO5)cc2)cc1" ?
Found: 5.06

Lookup: pIC50 for "O=[N+]([O-])c1ccc(COc2cccc(Nc3ncnc4cc5c(cc34)OCCOCCOCCO5)c2)cc1" ?
Found: < 4.00

Lookup: pIC50 for "O=[N+]([O-])c1ccc(COc2cccc(Nc3ncnc4cc5c(cc34)OCCOCCOCCOCCO5)c2)cc1" ?
Found: 4.86

Lookup: pIC50 for "FC(F)(F)c1ccc(COc2ccc(Nc3ncnc4cc5c(cc34)OCCOCCO5)cc2)cc1" ?
Found: < 4.00

Lookup: pIC50 for "O=[N+]([O-])c1ccc(COc2ccccc2Nc2ncnc3cc4c(cc23)OCCOCCOCCO4)cc1" ?
Found: < 4.00

Lookup: pIC50 for "FC(F)(F)c1ccc(COc2cccc(Nc3ncnc4cc5c(cc34)OCCOCCOCCO5)c2)cc1" ?
Found: 5.56

Lookup: pIC50 for "O=[N+]([O-])c1ccc(COc2cccc(Nc3ncnc4cc5c(cc34)OCCOCCO5)c2)cc1" ?
Found: < 4.00

Lookup: pIC50 for "O=[N+]([O-])c1ccc(COc2ccc(Nc3ncnc4cc5c(cc34)OCCOCCOCCOCCO5)cc2)cc1" ?
Found: < 4.00

Lookup: pIC50 for "FC(F)(F)c1ccc(COc2ccccc2Nc2ncnc3cc4c(cc23)OCCOCCOCCO4)cc1" ?
Found: < 4.00

Lookup: pIC50 for "c1ccc(COc2ccccc2Nc2ncnc3cc4c(cc23)OCCOCCOCCO4)cc1" ?
Found: 4.86

Lookup: pIC50 for "FC(F)(F)c1ccc(COc2ccc(Nc3ncnc4cc5c(cc34)OCCOCCOCCO5)cc2)cc1" ?
Found: < 4.00

Lookup: pIC50 for "FC(F)(F)c1ccc(COc2ccccc2Nc2ncnc3cc4c(cc23)OCCOCCO4)cc1" ?
Found: < 4.00

---

System: HepG2
Assay: Antiproliferative activity against human HepG2 cells incubated for 72 hrs by MTT assay
Format: functional, cell-based
Details: HepG2, 72 h
quantityName: IC50

* O=[N+]([O-])c1ccc(COc2cccc(Nc3ncnc4cc5c(cc34)OCCOCCOCCOCCO5)c2)cc1 | 9.82 µM
* O=[N+]([O-])c1ccc(COc2cccc(Nc3ncnc4cc5c(cc34)OCCOCCO5)c2)cc1 | 65.3 µM
* CNC(=O)c1cc(Oc2ccc(NC(=O)Nc3ccc(Cl)c(C(F)(F)F)c3)cc2)ccn1 | 7.84 µM
* FC(F)(F)c1ccc(COc2ccccc2Nc2ncnc3cc4c(cc23)OCCOCCOCCO4)cc1 | > 100 µM

Lookup: IC50 for "FC(F)(F)c1ccc(COc2cccc(Nc3ncnc4cc5c(cc34)OCCOCCOCCO5)c2)cc1" ?
Found: 34 µM

---

Test system: SH-SY5Y
Experiment: Antiproliferative activity against human SH-SY5Y cells incubated for 72 hrs by MTT assay
Type: functional, cell-based
Listed here are molecules together with their documented pIC50.
Note: pIC50 values are expressed as the negative base-10 logarithm of concentration in M.

- c1ccc(COc2cccc(Nc3ncnc4cc5c(cc34)OCCOCCOCCO5)c2)cc1: 4.64
- c1ccc(COc2ccc(Nc3ncnc4cc5c(cc34)OCCOCCOCCO5)cc2)cc1: 4.62
- FC(F)(F)c1ccc(COc2cccc(Nc3ncnc4cc5c(cc34)OCCOCCO5)c2)cc1: 4.72
- O=[N+]([O-])c1ccc(COc2cccc(Nc3ncnc4cc5c(cc34)OCCOCCO5)c2)cc1: 4.44
- O=[N+]([O-])c1ccc(COc2ccc(Nc3ncnc4cc5c(cc34)OCCOCCO5)cc2)cc1: 4.26

Lookup: pIC50 for "c1ccc(COc2ccc(Nc3ncnc4cc5c(cc34)OCCOCCO5)cc2)cc1" ?
Found: 4.41

Lookup: pIC50 for "c1ccc(COc2ccccc2Nc2ncnc3cc4c(cc23)OCCOCCO4)cc1" ?
Found: 4.03

Lookup: pIC50 for "FC(F)(F)c1ccc(COc2cccc(Nc3ncnc4cc5c(cc34)OCCOCCOCCO5)c2)cc1" ?
Found: 4.70

Lookup: pIC50 for "c1ccc(COc2ccccc2Nc2ncnc3cc4c(cc23)OCCOCCOCCO4)cc1" ?
Found: 4.01

---

System: A549
Assay: Antiproliferative activity against human A549 cells incubated for 72 hrs by MTT assay
Assay type: functional, cell-based
Details: A549, 72 h
quantityName: IC50

- c1ccc(COc2ccc(Nc3ncnc4cc5c(cc34)OCCOCCOCCOCCO5)cc2)cc1: 29.5 µM
- FC(F)(F)c1ccc(COc2ccc(Nc3ncnc4cc5c(cc34)OCCOCCO5)cc2)cc1: > 100 µM
- c1ccc(COc2ccccc2Nc2ncnc3cc4c(cc23)OCCOCCOCCO4)cc1: 6.94 µM
- FC(F)(F)c1ccc(COc2cccc(Nc3ncnc4cc5c(cc34)OCCOCCOCCO5)c2)cc1: 24.9 µM
- c1ccc(COc2ccc(Nc3ncnc4cc5c(cc34)OCCOCCOCCO5)cc2)cc1: > 100 µM

Lookup: IC50 for "FC(F)(F)c1ccc(COc2cccc(Nc3ncnc4cc5c(cc34)OCCOCCO5)c2)cc1" ?
Found: > 100 µM

Lookup: IC50 for "O=[N+]([O-])c1ccc(COc2cccc(Nc3ncnc4cc5c(cc34)OCCOCCOCCO5)c2)cc1" ?
Found: > 100 µM

Lookup: IC50 for "O=[N+]([O-])c1ccc(COc2cccc(Nc3ncnc4cc5c(cc34)OCCOCCO5)c2)cc1" ?
Found: 15.5 µM

Lookup: IC50 for "FC(F)(F)c1ccc(COc2cccc(Nc3ncnc4cc5c(cc34)OCCOCCOCCOCCO5)c2)cc1" ?
Found: 8.52 µM
